src = patent US10654802B2

target.of.assay: Nox4 (Homo sapiens)
Construct: expressed in transfected cells
assay.explanation: Inhibition of Nox4-dependent H2O2 production in HEK/Nox4 cells, Amplex Red assay
Format: cell-based
experimental.setup: 5 μM final concentration, 1 h, HEK/Nox4 cells; DMSO vehicle = 1.000; n = 3-10; read-out: H2O2 production relative to vehicle control, Mean
remaining activity at 5 µM vs 80%: less than gives T; not less than gives F.

| compound | target.of.assay | discrete.label |
| --- | --- | --- |
| CCN(CC)S(=O)(=O)NCCN1CCc2ccccc21 [UANOX001] | Nox4 (Homo sapiens) | F |
| CCN(CC)C(=O)NCCN1CCc2ccccc21 [UANOX002] | Nox4 (Homo sapiens) | F |
| CCN(CC)C(=O)NCC(C)N1CCc2ccccc21 (centres unmarked) [UANOX006] | Nox4 (Homo sapiens) | F |
| O=C(CCN1CCN(S(=O)(=O)N2CCCCC2)CC1)N1CCc2ccccc21 [UANOX031] | Nox4 (Homo sapiens) | F |
| CC(CNS(=O)(=O)c1ccc(C#N)cc1)N1CCc2ccccc21 (centres unmarked) [UANOX073] | Nox4 (Homo sapiens) | T |
| O=C(CNC1CCCCCC1)N1CCc2ccccc21 [UANOX023] | Nox4 (Homo sapiens) | F |
| COc1ccc(-c2nc(C(=O)NCC(C)N3CCc4ccccc43)cs2)cc1 (centres unmarked) [UANOX054] | Nox4 (Homo sapiens) | F |
| COc1cccc(-c2ccc3c(c2)CCN3C(C)CNS(=O)(=O)N2CCN(C)CC2)c1 (centres unmarked) [UANOX0254] | Nox4 (Homo sapiens) | F |
| CC(C)(CNS(=O)(=O)c1ccc(Oc2ccccc2)cc1)N1CCc2ccccc21 [UANOX085] | Nox4 (Homo sapiens) | F |
| CC(CNC(=O)c1csc(-c2ccc(C(F)(F)F)cc2)n1)N1CCc2ccccc21 (centres unmarked) [UANOX056] | Nox4 (Homo sapiens) | F |
| CC(CNS(=O)(=O)N(C)C)N1CCc2ccccc21 (centres unmarked) [UANOX007] | Nox4 (Homo sapiens) | F |
| O=S(=O)(NCCN1CCc2ccccc21)c1ccc(Oc2ccccc2)cc1 [UANOX079] | Nox4 (Homo sapiens) | T |
| CC(C)(CNS(=O)(=O)c1ccc(C(F)(F)F)cc1)N1CCc2ccccc21 [UANOX084] | Nox4 (Homo sapiens) | T |
| O=S(=O)(NCCN1CCc2ccccc21)c1ccc(C(F)(F)F)cc1 [UANOX075] | Nox4 (Homo sapiens) | T |
| O=S(=O)(NCCN1CCc2ccccc21)N1CCOCC1 [UANOX012] | Nox4 (Homo sapiens) | F |
| CC(CNC(=O)c1csc(-c2ccncc2)n1)N1CCc2ccccc21 (centres unmarked) [UANOX033] | Nox4 (Homo sapiens) | F |
| N#Cc1ccc(S(=O)(=O)NCCN2CCc3ccccc32)cc1 [UANOX082] | Nox4 (Homo sapiens) | T |
| CCN(CC)S(=O)(=O)N1CCN(CCN2CCc3ccccc32)CC1 [UANOX063] | Nox4 (Homo sapiens) | T |
| CN(C)S(=O)(=O)N1CCN(CCC(=O)N2CCc3ccccc32)CC1 [UANOX032] | Nox4 (Homo sapiens) | F |
| O=C(CN1CCN(S(=O)(=O)N2CCCCC2)CC1)N1CCc2ccccc21 [UANOX027] | Nox4 (Homo sapiens) | F |
| CC(CNS(=O)(=O)c1ccc(C(F)(F)F)cc1)N1CCc2ccccc21 (centres unmarked) [UANOX048] | Nox4 (Homo sapiens) | T |
| CCN(CC)S(=O)(=O)NCC(C)N1CCc2cc(-c3cccc(OC)c3)ccc21 (centres unmarked) [UANOX036] | Nox4 (Homo sapiens) | F |
| CN(C)S(=O)(=O)NCCN1CCc2ccccc21 [UANOX003] | Nox4 (Homo sapiens) | F |
| CC(CNS(=O)(=O)c1ccc(Oc2ccccc2)cc1)N1CCc2ccccc21 (centres unmarked) [UANOX071] | Nox4 (Homo sapiens) | F |
| O=S(=O)(NCCN1CCc2ccccc21)c1ccc(Oc2ccc(C(F)(F)F)cn2)cc1 [UANOX080] | Nox4 (Homo sapiens) | T |
| O=S(=O)(c1ccc(OC(F)(F)F)cc1)N1CCN(CCN2CCc3ccccc32)CC1 [UANOX062] | Nox4 (Homo sapiens) | T |
| CC(C)(CNS(=O)(=O)c1ccc(F)c(F)c1)N1CCc2ccccc21 [UANOX087] | Nox4 (Homo sapiens) | F |
| CC(C)(CNS(=O)(=O)c1ccc(Oc2ccc(C(F)(F)F)cn2)cc1)N1CCc2ccccc21 [UANOX088] | Nox4 (Homo sapiens) | F |
| CC(C)(CNS(=O)(=O)c1ccc(OC(F)(F)F)cc1)N1CCc2ccccc21 [UANOX090] | Nox4 (Homo sapiens) | F |
| O=C(CCN1CCN(S(=O)(=O)N2CCOCC2)CC1)N1CCc2ccccc21 [UANOX030] | Nox4 (Homo sapiens) | F |
| CCN(CC)S(=O)(=O)N1CCN(CC(=O)N2CCc3ccccc32)CC1 [UANOX025] | Nox4 (Homo sapiens) | F |
| CN(C)S(=O)(=O)N1CCN(CC(=O)N2CCc3ccccc32)CC1 [UANOX028] | Nox4 (Homo sapiens) | F |
| c1ccc2c(c1)CCN2CCN1CCCCC1 [UANOX018, 1-(2-(piperidin-1-yl)ethyl)indoline] | Nox4 (Homo sapiens) | F |

====

target.of.assay: Nox4 (Homo sapiens, UniProt Q9NPH5)
Construct: expressed in transfected cells
assay.explanation: Inhibition of Nox4-dependent H2O2 production in HEK/Nox4 cells, Amplex Red assay
Format: cell-based
experimental.setup: 5 μM final concentration, 1 h, HEK/Nox4 cells; DMSO vehicle = 1.000; n = 3-10; read-out: H2O2 production relative to vehicle control, Mean
reported.property: remaining activity at 5 µM (%)

| compound | value.unit | observed.result |
| --- | --- | --- |
| CC(CNC(=O)N1CCCC1)N1CCc2ccccc21 (stereo not drawn) [UANOX020] | % | 87 |
| O=S(=O)(NCCN1CCc2ccccc21)N1CCCCC1 [UANOX013] | % | 92.1 |
| O=C(CCN1CCN(c2ncccn2)CC1)N1CCc2ccccc21 [UANOX022] | % | 107 |
| CCN(CC)S(=O)(=O)NCC(C)(C)N1CCc2ccccc21 [UANOX083] | % | 73 |
| O=C(CN1CCN(S(=O)(=O)N2CCOCC2)CC1)N1CCc2ccccc21 [UANOX026] | % | 106 |
| O=C(NCCN1CCc2ccccc21)N1CCCC1 [UANOX021] | % | 87.6 |

====

target.of.assay: Nox4 (Homo sapiens, UniProt Q9NPH5)
Construct: expressed in transfected cells
Sequence (Q9NPH5 1-578): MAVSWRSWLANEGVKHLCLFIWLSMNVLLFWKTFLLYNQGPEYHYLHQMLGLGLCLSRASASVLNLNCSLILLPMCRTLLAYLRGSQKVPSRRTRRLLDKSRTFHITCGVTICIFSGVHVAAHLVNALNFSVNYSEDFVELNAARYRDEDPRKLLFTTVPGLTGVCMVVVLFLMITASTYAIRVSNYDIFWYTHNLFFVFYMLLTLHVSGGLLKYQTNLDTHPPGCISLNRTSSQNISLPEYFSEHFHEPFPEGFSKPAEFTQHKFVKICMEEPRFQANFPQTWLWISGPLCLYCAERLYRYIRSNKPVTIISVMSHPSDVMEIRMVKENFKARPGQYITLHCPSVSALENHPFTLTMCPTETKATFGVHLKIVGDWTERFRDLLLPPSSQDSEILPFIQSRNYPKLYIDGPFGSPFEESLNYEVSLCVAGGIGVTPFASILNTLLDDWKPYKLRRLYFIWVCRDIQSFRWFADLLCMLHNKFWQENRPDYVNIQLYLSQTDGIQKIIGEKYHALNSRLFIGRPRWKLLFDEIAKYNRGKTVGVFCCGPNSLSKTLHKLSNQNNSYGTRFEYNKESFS
Sequence (P13498 1-195 partner): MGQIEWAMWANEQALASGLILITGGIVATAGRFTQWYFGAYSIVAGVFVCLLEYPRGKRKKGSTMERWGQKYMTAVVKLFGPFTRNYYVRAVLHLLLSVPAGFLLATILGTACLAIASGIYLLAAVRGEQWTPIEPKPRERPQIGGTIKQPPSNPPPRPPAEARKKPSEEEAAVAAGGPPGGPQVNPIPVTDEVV
assay.explanation: Inhibition of Nox4-dependent H2O2 production in HEK/Nox4 cells, Amplex Red assay
Assay type: cell-based
experimental.setup: 10 μM final concentration, 1 h, HEK/Nox4 cells; DMSO vehicle = 1.000; n = 3-10; read-out: H2O2 production relative to vehicle control, Mean
reported.property: remaining activity at 10 µM (%)

| compound | target.of.assay | reported.property | observed.result |
| --- | --- | --- | --- |
| O=S(=O)(NCCN1CCc2ccccc21)c1ccc(OC(F)(F)F)cc1 | Nox4 (Homo sapiens, UniProt Q9NPH5) | remaining activity at 10 µM | 66.2 |
| CC(CNC(=O)c1csc(-c2ccccc2)n1)N1CCc2ccccc21 (stereo not drawn) | Nox4 (Homo sapiens, UniProt Q9NPH5) | remaining activity at 10 µM | 86.8 |
| CN(C)S(=O)(=O)N1CCN(CC(=O)N2CCc3ccccc32)CC1 | Nox4 (Homo sapiens, UniProt Q9NPH5) | remaining activity at 10 µM | 111 |
| O=S(=O)(c1ccc(F)cc1)N1CCN(CCN2CCc3ccccc32)CC1 | Nox4 (Homo sapiens, UniProt Q9NPH5) | remaining activity at 10 µM | 72.4 |
| N#Cc1ccc(S(=O)(=O)NCCN2CCc3ccccc32)cc1 | Nox4 (Homo sapiens, UniProt Q9NPH5) | remaining activity at 10 µM | 60.6 |
| CC(CNS(=O)(=O)N(C)C)N1CCc2ccccc21 (stereo not drawn) | Nox4 (Homo sapiens, UniProt Q9NPH5) | remaining activity at 10 µM | 90.8 |
| CC(C)(CNS(=O)(=O)c1ccc(OC(F)(F)F)cc1)N1CCc2ccccc21 | Nox4 (Homo sapiens, UniProt Q9NPH5) | remaining activity at 10 µM | 74.5 |
| O=C(CN1CCN(S(=O)(=O)N2CCOCC2)CC1)N1CCc2ccccc21 | Nox4 (Homo sapiens, UniProt Q9NPH5) | remaining activity at 10 µM | 101 |
| CC(C)(CNS(=O)(=O)c1ccc(Oc2ccccc2)cc1)N1CCc2ccccc21 | Nox4 (Homo sapiens, UniProt Q9NPH5) | remaining activity at 10 µM | 73.6 |
